Reported growth inhibition values for the following compounds.
# measurement_description: NCI Yeast Anticancer Drug Screen. Data for the cln2 rad14 strain (AID 165);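 note: 0% = growth equal to vehicle treated cultures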
# test_parameters: S. cerevisiae cln2 rad14 strain, at 50.0 µM, hits give high values
This is part of a sample that, as a whole, favours compounds with a hit. Of some 79,000 tested, about 15% had one in any assay. Activity calls are given as the source filed them. Cut-off read from the data, not from the text of the source: active = growth inhibition above about 70%; inactive = the rest.

These solved cases illustrate the format of a correct answer.
- compound: "COc1cccc(C(OC(=O)c2ccccc2)c2nncc3ccccc23)c1OC (stereo not given)"
  endpoint_name: "growth inhibition"
  assay_value: "5.9% (inactive)"
- compound: "CC(=O)N/N=C1\\NN(C(C)=O)C2(S1)C(=O)Nc1ccccc12 (stereo not given)"
  endpoint_name: "growth inhibition"
  assay_value: "78.5% (active)"
- compound: "CCOC(=O)c1cn(Cc2ccccc2)c(=O)n1Cc1ccccc1"
  endpoint_name: "growth inhibition"
  assay_value: "-2.4% (inactive)"
- compound: "CC(=O)N1Cc2ncnc(N)c2C1"
  endpoint_name: "growth inhibition"
  assay_value: "-10.6% (inactive)"
- compound: "COC(=O)/C=C\\CC(=O)OC"
  endpoint_name: "growth inhibition"
  assay_value: "-5.05% (inactive)"

So, Cn1nc2ccccc2cc1=O ? Its growth inhibition was 14.2% (inactive)

So, CCCCc1nc(C)oc1C(C)C ? Its growth inhibition was -5.45% (inactive)

What the record says about CCCCOCCOCCOC(=O)C(C)O (stereo not given) : growth inhibition is 5.1% (inactive)

Briefly, growth inhibition measured for [O-][N+]1=C(c2ccccc2)C(c2ccccc2)C(c2ccccc2)O1 (stereo not given) : -6% (inactive)

Note to self: growth inhibition recorded for CCCC(=O)c1c(C)cc(C)cc1C was 9.45% (inactive)

Form: compound = Nc1cccc2c1CCC=C2 ; growth inhibition = -6% (inactive)

CCC(C)NC(=O)c1ccccc1C (stereo not given) yielded growth inhibition of -10.2% (inactive)

Please fill in: growth inhibition reported for CC(=O)C(C(=O)C(=O)Nc1cc(Cl)c(Cl)cc1Cl)c1csc(N)n1 (stereo not given) = 7% (inactive)

Noted for Cc1ccc(NC(=O)CSc2nnc(-c3ccc(N=Cc4ccc(Cl)cc4)cc3)o2)cc1 : its growth inhibition reads -59.8% (inactive)

# growth inhibition (compound: CCOC(=O)CNC(=O)CCC(=O)OC ) is -10.6% (inactive)

// growth inhibition lookup, compound = O=C(O)NC(c1ccccc1)C(NC(=O)c1ccccc1)c1ccccc1 (stereo not given) , result: 7.15% (inactive)
